The reported numbers originate from ChEMBL document CHEMBL1125029.

- study target: Muscarinic acetylcholine receptor
- run description: Binding activity to muscarinic acetylcholine receptor in rat heart, assayed using [3H]QNB as a radioligand in the presence of Gpp(NH)p.
Please go through the items and note down their Ki.
Give bare numbers, in nM.

Sample answers from the record:
| smiles str | Ki, nM |
| --- | --- |
| O=C1CCCN1CC#CCN1CCCC1 | 140 |
| CCOC(=O)N1CCC[C@@H]1C#CCN1CCCC1 | 1040 |
| O=CN1CCC[C@H]1C#CCN1CCCC1 | 77000 |
| CC(=O)N1CCC[C@@H]1C#CC[N+](C)(C)C | 5470 |
| Cl.O=C(N1CCC[C@@H]1C#CCN1CCCC1)C(F)(F)F | 1070 |
| O=CN1CCC[C@@H]1C#CCN1CCCC1 | 3120 |

Each compound below has a recorded value; state its Ki.
1. CN(C)CC#C[C@@H]1CCCN1C(=O)OC(C)(C)C
2. CC(C)(C)OC(=O)N1CCC[C@H]1C#CCN1CCCC1
3. CC(=O)N1CCC[C@@H]1C#CCN1CCCC1.Cl
4. C(#C[C@H]1CCCN1)CN1CCCC1.Cl.Cl

[reply]
1. 14100
2. 900
3. 1630
4. 19600

For each of the compounds below, note its Ki.
1. CC(=O)N1CCC[C@H]1C#CC[N+](C)(C)C
2. CC(C)(C)OC(=O)N1CCC[C@@H]1C#CCN1CCCC1

[reply]
47100
1960
